Tested on: ACHN renal
measurement-description: NCI-60 one-dose screen, 48 h (100 = growth as untreated, 0 = no growth, -100 = all killed)
condition-parameters: 10 µM unless noted
The panel holds about 83,000 compounds, 20% with a hit somewhere; the sample as a whole holds those more often.
Answer each item with its documented growth.
Answers are plain numbers, in %.

[in] Suppose we examine the molecule COc1cc(/C=C/C(=O)c2ccc(NC(=O)COc3cccc4cccnc34)cc2)cc(OC)c1OC ; what growth value has been reported?
[out] 80.2

[in] How about this molecule: COc1ccc2oc3c4[nH]c5ccccc5c4c4c(c3c2c1)C(=O)N(O)C4=O
[out] 97.9

[in] Try O=C(/C=C1\C=CN(CCCCO)c2ccccc21)n1ccc2ccccc21 next.
[out] 93.7

Hi team, please reply with growth for each item in this list.
1. O=S(=O)(Nc1ccc(I)c(Cl)c1)c1ccc(-c2cnc(C3CC3)o2)cc1
2. Clc1ccc(-c2csc(N/N=C/c3nc4ccccc4n3C3CC3)n2)cc1

[out]
1: 41.5; 2: 104
